Biological target: Recombinant human hepsin (4776-SE-010, R&D Systems), activated (human, UniProt P05981)
Experiment: fluorogenic inhibition assay
*: point of attachment. kt = C-terminal ketothiazole, c1csc(*)n1

| Binder | Unit Name | Ki |
| --- | --- | --- |
| Ac-SWLR-kt (SMILES CC(=O)N[C@@H](CO)C(=O)N[C@@H](Cc1c[nH]c2ccccc12)C(=O)N[C@@H](CC(C)C)C(=O)N[C@@H](CCCNC(=N)N)C(=O)c1nccs1) [Ac-SWLR(SEQ ID NO: 17)-kt] | nM | 1.2 |
| Ac-TKLR-kt (SMILES CC(=O)N[C@H](C(=O)N[C@@H](CCCCN)C(=O)N[C@@H](CC(C)C)C(=O)N[C@@H](CCCNC(=N)N)C(=O)c1nccs1)[C@@H](C)O) [Ac-TKLR(SEQ ID NO: 16)-kt] | nM | 0.61 |
| Ac-Leu-Leu-Arg-kt [Ac-LLR-kt] | nM | 2.29 |
